Field: inhibition at 1.1 µM. Provide a value for each of the molecules that follow.
test.target: HIV-1 protease (Human immunodeficiency virus type 1 group M subtype B)
measurement.description: biochemical
particulars: read-out: HIV-1 Protease % Inhib, dose 1.100 uM
Your answer is read as %, so omit the unit and give the number.

Problem: Give reported inhibition at 1.1 µM value for Cc1ccccc1S(=O)(=O)Nc1cccc(C(c2c(O)c3c(oc2=O)CCCCCC3)C2CC2)c1 (stereo not shown)
Result: 106

Problem: Give reported inhibition at 1.1 µM value for O=c1oc2c(c(O)c1C(c1cccc(NS(=O)(=O)c3ccccc3Cl)c1)C1CC1)CCCCCC2 (stereo not shown)
Result: 96.8

Problem: Give reported inhibition at 1.1 µM value for O=c1oc2c(c(O)c1C(c1cccc(NS(=O)(=O)c3cccc(S(=O)(=O)NCc4ccccc4)c3)c1)C1CC1)CCCCCC2 (stereo not shown)
Result: 92

Problem: Give reported inhibition at 1.1 µM value for CCCC1CCCCCc2c1oc(=O)c(C(c1ccccc1)C1CC1)c2O (stereo not shown)
Result: 102

Problem: Give reported inhibition at 1.1 µM value for O=c1oc2c(c(O)c1C(c1ccccc1)C1CC1)CCCCCC2CC1CO1 (stereo not shown)
Result: 84.2

Problem: Give reported inhibition at 1.1 µM value for CC(C)C(c1cccc(NS(=O)(=O)c2ccc(C#N)cc2)c1)c1c(O)c2c(oc1=O)CCCCCC2 (stereo not shown)
Result: 105

Problem: Give reported inhibition at 1.1 µM value for CCS(=O)(=O)Nc1cccc(C(c2c(O)c3c(oc2=O)CCCCC3)C2CC2)c1 (stereo not shown)
Result: 65.3

Problem: Give reported inhibition at 1.1 µM value for Cc1cncc(S(=O)(=O)Nc2cccc(C(c3c(O)c4c(oc3=O)CCCCCC4)C3CC3)c2)c1 (stereo not shown)
Result: 91.9

Problem: Give reported inhibition at 1.1 µM value for CN1CCN(S(=O)(=O)Nc2cccc(C(c3c(O)c4c(oc3=O)CCCCCC4)C3CC3)c2)CC1 (stereo not shown)
Result: 54.1

Problem: Give reported inhibition at 1.1 µM value for CCC(c1cccs1)c1c(O)c2c(oc1=O)CCCCCC2 (stereo not shown)
Result: 57.2

Problem: Give reported inhibition at 1.1 µM value for CCCC(=O)Nc1cccc(C(c2c(O)c3c(oc2=O)CCCCCC3)C2CC2)c1 (stereo not shown)
Result: 80

Problem: Give reported inhibition at 1.1 µM value for O=c1oc2c(c(O)c1C(c1cccc(NS(=O)(=O)c3cc(S(=O)(=O)c4ccccc4)cs3)c1)C1CC1)CCCCCC2 (stereo not shown)
Result: 94.6

Problem: Give reported inhibition at 1.1 µM value for O=C(Nc1cccc(C(c2c(O)c3c(oc2=O)CCCCCC3)C2CC2)c1)Oc1ccccc1 (stereo not shown)
Result: 14.9

Problem: Give reported inhibition at 1.1 µM value for O=c1oc2c(c(O)c1C(c1cccc(NS(=O)(=O)CCCCl)c1)C1CC1)CCCCCC2 (stereo not shown)
Result: 99.2

Problem: Give reported inhibition at 1.1 µM value for O=c1oc2c(c(O)c1C(c1cccc(NS(=O)(=O)c3cccc4ccccc34)c1)C1CC1)CCCCCC2 (stereo not shown)
Result: 107

Problem: Give reported inhibition at 1.1 µM value for O=C(CCN1CCCCC1)Nc1cccc(C(c2c(O)c3c(oc2=O)CCCCCC3)C2CC2)c1 (stereo not shown)
Result: 76.6
